Target: T1, human CLEC12a expressed on transiently transfected HEK 293 cells (human, UniProt Q5QGZ9 1-265)
T1 construct: also called CLL-1; CLL1
T1 sequence: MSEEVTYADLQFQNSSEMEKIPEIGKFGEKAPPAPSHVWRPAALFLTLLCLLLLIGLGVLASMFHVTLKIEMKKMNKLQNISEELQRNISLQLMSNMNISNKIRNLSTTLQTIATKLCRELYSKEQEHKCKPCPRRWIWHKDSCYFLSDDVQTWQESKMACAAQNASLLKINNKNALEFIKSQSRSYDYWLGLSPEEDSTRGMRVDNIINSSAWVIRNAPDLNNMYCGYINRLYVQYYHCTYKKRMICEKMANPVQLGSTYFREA
Assay: flow cytometry on HEK 293 cells transiently transfected with human CLEC12a, Alexa Fluor 647 anti-human IgG secondary, median fluorescence
Reported EC50 (read off the curve) by item:

Worked cases, EC50 (read off the curve) given:
1. ME02 sdAb (VHH ME02 fused to human IgG1 xELL Fc) (Fc fusion, Camelid parental VHH; No linker is stated; also called ME02-IgG1) QVQLQQSGGGLVQVGGSQRLSCAASGRTFEYDDMVWFRQAPGKEREEVAGISWSGGSIYYADSVKGRFSISRDNAKNTVYLEMNRLKPEDTAVYYCNVGSYWGQGTQVTVDKTHTCPPCPAPGGPSVFLFPPKPKDTLMISRTPEVTCVVVDVSHEDPEVKFNWYVDGVEVHNAKTKPREEQYNSTYRVVSVLTVLHQDWLNGKEYKCKVSNKALPAPIEKTISKAKGQPREPQVYTLPPSRDELTKNQVSLTCLVKGFYPSDIAVEWESNGQPENNYKTTPPVLDSDGSFFLYSKLTVDKSRWQQGNVFSCSVMHEALHNHYTQKSLSLSPGK ... ~1 nM
2. hzME02v4 sdAb (VHH hzME02v4 fused to human IgG1 xELL Fc) (Fc fusion, Humanized version of ME02; No linker is stated; also called hzME02v4-IgG1) EVQLVESGGGEVQPGGSLRLSCAASGRTFEYDDMVWFRQAPGKEREEVAGISWSGGSIYYAESVKGRFSISRDNAKNTVYLEMNRLKPEDTAVYYCNVGSYWGQGTLVTVDKTHTCPPCPAPGGPSVFLFPPKPKDTLMISRTPEVTCVVVDVSHEDPEVKFNWYVDGVEVHNAKTKPREEQYNSTYRVVSVLTVLHQDWLNGKEYKCKVSNKALPAPIEKTISKAKGQPREPQVYTLPPSRDELTKNQVSLTCLVKGFYPSDIAVEWESNGQPENNYKTTPPVLDSDGSFFLYSKLTVDKSRWQQGNVFSCSVMHEALHNHYTQKSLSLSPGK ... ~0.8 nM
3. hzMC06v2 sdAb (VHH hzMC06v2 fused to human IgG1 xELL Fc) (Fc fusion, Humanized version of MC06; No linker is stated; also called hzMC06v2-IgG1) EVQLVESGGGEVQPGGSLRLSCAASGFTFSVYDMNWYRQAPGKEREWVSGISNNGFSTAYAESVKGRFTISRDNAKNTLYLQMSSLRAEDTAVYYCNLDVHGRVGAQGDYWGQGTLVTVDKTHTCPPCPAPGGPSVFLFPPKPKDTLMISRTPEVTCVVVDVSHEDPEVKFNWYVDGVEVHNAKTKPREEQYNSTYRVVSVLTVLHQDWLNGKEYKCKVSNKALPAPIEKTISKAKGQPREPQVYTLPPSRDELTKNQVSLTCLVKGFYPSDIAVEWESNGQPENNYKTTPPVLDSDGSFFLYSKLTVDKSRWQQGNVFSCSVMHEALHNHYTQKSLSLSPGK ... ~10 nM

Qu. Quick check: EC50 (read off the curve) of MB11 sdAb (VHH MB11 fused to human IgG1 xELL Fc) (Fc fusion, Camelid parental VHH; No linker between VHH and Fc is stated; Fc dimers are described only in general terms; also called MB11-IgG1) QVQLQQSGGGLVQPGGSLRLSCVASGFLFSIYDMNWYRQAPGKEREWIAGITNNGYSTAYTDSVQGRFTISRDNAKNTIYLQMTSLKPEDTAVYYCHADLTKCYDGEYAWGQGTQVTVDKTHTCPPCPAPGGPSVFLFPPKPKDTLMISRTPEVTCVVVDVSHEDPEVKFNWYVDGVEVHNAKTKPREEQYNSTYRVVSVLTVLHQDWLNGKEYKCKVSNKALPAPIEKTISKAKGQPREPQVYTLPPSRDELTKNQVSLTCLVKGFYPSDIAVEWESNGQPENNYKTTPPVLDSDGSFFLYSKLTVDKSRWQQGNVFSCSVMHEALHNHYTQKSLSLSPGK ?
Ans. ~50 nM

Qu. Also check MC06 sdAb (VHH MC06 fused to human IgG1 xELL Fc) (Fc fusion, Camelid parental VHH; No linker is stated; also called MC06-IgG1) QVQLQESGGGLVQPGGSLRLSCAASGFTFSVYDMNWYRQTPGKEREWVAGISNNGFSTAYAGSVKGRFTISRDNAENTVYLQMNSLKSEDTAVYYCNLDVHGRVGAQGDYWGQGTQVTVDKTHTCPPCPAPGGPSVFLFPPKPKDTLMISRTPEVTCVVVDVSHEDPEVKFNWYVDGVEVHNAKTKPREEQYNSTYRVVSVLTVLHQDWLNGKEYKCKVSNKALPAPIEKTISKAKGQPREPQVYTLPPSRDELTKNQVSLTCLVKGFYPSDIAVEWESNGQPENNYKTTPPVLDSDGSFFLYSKLTVDKSRWQQGNVFSCSVMHEALHNHYTQKSLSLSPGK
Ans. 1 to 2 nM

The measured values listed here are drawn from patent US20200347139A1.
